Source listed as paper PMC6948153.

- TARGET_SYSTEM: RhlI (Pseudomonas aeruginosa)
- ASSAY: RhlI enzymatic assay
- Assay type: biochemical
- ASSAY_CONTEXT: initial rate with increasing concentrations of compound
REPORTED_METRIC: effect on RhlI activity (inhibition / activation)

Consider the compound CCCCCCCC(=O)CC(=O)N[C@@H]1CCSC1=O . State its measured effect on RhlI activity (inhibition / activation).
activated

Consider the compound CCCCCC(=O)CC(=O)N[C@@H]1CCSC1=O . State its measured effect on RhlI activity (inhibition / activation).
activated

Consider the compound CCCC(=O)CC(=O)N[C@@H]1CCSC1=O . State its measured effect on RhlI activity (inhibition / activation).
activated

----------
- TARGET_SYSTEM: RhlI (Pseudomonas aeruginosa, UniProt P54291)
- Sequence (P54291 whole entry): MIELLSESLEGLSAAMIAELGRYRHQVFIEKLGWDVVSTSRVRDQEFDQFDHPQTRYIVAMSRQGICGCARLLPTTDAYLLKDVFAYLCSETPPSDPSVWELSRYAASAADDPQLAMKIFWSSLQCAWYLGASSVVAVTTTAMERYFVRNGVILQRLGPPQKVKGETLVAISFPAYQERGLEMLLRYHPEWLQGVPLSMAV
- ASSAY: RhlI enzymatic assay
- Assay type: biochemical
Label rule met when IC50 < 400 µM; otherwise rule not met.

Would you kindly verify if IC50 of CCCCCCCCCC(=O)CC(=O)N[C@H]1CCSC1=O is strictly less than 400 µM?
rule not met

Would you kindly verify if IC50 of CCCCCC(=O)CC(=O)N[C@@H]1CCOC1=O is strictly less than 400 µM?
rule met

Would you kindly verify if IC50 of O=C(CCCc1ccccc1)N[C@@H]1CCOC1=O is strictly less than 400 µM?
rule met

Would you kindly verify if IC50 of CCCC(=O)N[C@@H]1CCOC1=O is strictly less than 400 µM?
rule not met

Would you kindly verify if IC50 of CCCCCCCCCC(=O)CC(=O)N[C@@H]1CCSC1=O is strictly less than 400 µM?
rule met

Would you kindly verify if IC50 of CCCCCCCCCCCC(=O)N[C@H]1CCSC1=O is strictly less than 400 µM?
rule met

Would you kindly verify if IC50 of CCCCCCCCCCCC(=O)N[C@@H]1CCSC1=O is strictly less than 400 µM?
rule met

----------
- TARGET_SYSTEM: RhlI (Pseudomonas aeruginosa)
- ASSAY: Inhibition of RhlI by inert alkyl-ACP / alkyl-CoA substrate analogs
- Assay type: biochemical
REPORTED_METRIC: IC50 (µM)
Report only the number, with the unit µM understood.

System RhlI (Pseudomonas aeruginosa). Read-out IC50. Item CCCCCCCCSCCNC(=O)CCNC(=O)[C@H](O)C(C)(C)COP(=O)(O)OP(=O)(O)OC[C@H]1O[C@@H](n2cnc3c(N)ncnc32)[C@H](O)[C@@H]1OP(=O)(O)O . Report value.
5.1

System RhlI (Pseudomonas aeruginosa). Read-out IC50. Item CCCCCCSCCNC(=O)CCNC(=O)[C@H](O)C(C)(C)COP(=O)(O)OP(=O)(O)OC[C@H]1O[C@@H](n2cnc3c(N)ncnc32)[C@H](O)[C@@H]1OP(=O)(O)O . Report value.
70

----------
- TARGET_SYSTEM: RhlI (Pseudomonas aeruginosa, UniProt P54291)
- ASSAY: RhlI enzymatic assay
REPORTED_METRIC: EC50 (µM)
Report only the number, with the unit µM understood.

System RhlI (Pseudomonas aeruginosa, UniProt P54291). Read-out EC50. Item CCCC(=O)CC(=O)N[C@@H]1CCOC1=O . Report value.
224

System RhlI (Pseudomonas aeruginosa, UniProt P54291). Read-out EC50. Item CCCC(=O)CC(=O)N[C@@H]1CCSC1=O . Report value.
1510

System RhlI (Pseudomonas aeruginosa, UniProt P54291). Read-out EC50. Item CCCCCCCC(=O)CC(=O)N[C@@H]1CCSC1=O . Report value.
57

System RhlI (Pseudomonas aeruginosa, UniProt P54291). Read-out EC50. Item CCCCCC(=O)CC(=O)N[C@@H]1CCSC1=O . Report value.
855
